Values were extracted from patent US10799507B2.

- SYSTEM NAME: JAK3 (Homo sapiens (Human))
- Sequence (P52333 822-1111): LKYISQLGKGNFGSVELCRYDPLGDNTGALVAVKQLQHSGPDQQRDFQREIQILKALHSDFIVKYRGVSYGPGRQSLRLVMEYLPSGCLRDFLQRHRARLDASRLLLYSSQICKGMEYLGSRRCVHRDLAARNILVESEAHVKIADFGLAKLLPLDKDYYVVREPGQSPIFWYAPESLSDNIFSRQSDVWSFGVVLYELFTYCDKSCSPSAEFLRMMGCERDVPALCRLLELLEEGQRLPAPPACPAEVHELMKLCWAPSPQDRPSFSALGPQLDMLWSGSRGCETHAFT
- TEST SUMMARY: JAK kinase assay (HTRF), JAK3
- SETTINGS: catalytic domain, ATP at Km (2 μM)
Overview of recorded EC50 for various compounds
# unit: nM | format: bare number

Examples with answers:
>  <COMPOUND>
O=C(NCc1ccncc1)C1CCN(c2ncnc3[nH]ccc23)CC12CC2 (centres unmarked) [Example 85]

>  <UNIT INFO>
nM

>  <OBSERVED RESULT>
42.8

$$$$
>  <COMPOUND>
O=C(N[C@@H](CO)Cc1ccccc1)C1CCN(c2ncnc3[nH]ccc23)CC12CC2 (some centres unmarked) [Example 137]

>  <UNIT INFO>
nM

>  <OBSERVED RESULT>
91.6

$$$$
>  <COMPOUND>
O=C(NC[C@@H](O)C1CCCC1)[C@H]1CCN(c2ncnc3[nH]ccc23)CC12CC2 [Example 1]

>  <UNIT INFO>
nM

>  <OBSERVED RESULT>
3.3

$$$$
>  <COMPOUND>
O=C(OCC1(CO)CC(F)(F)C1)[C@H]1CCN(c2ncnc3[nH]ccc23)CC12CC2 [Example 160]

>  <UNIT INFO>
nM

>  <OBSERVED RESULT>
1.8

$$$$
>  <COMPOUND>
O=C(NC[C@@H](O)c1ccc(F)cc1)[C@H]1CCN(c2ncnc3[nH]ccc23)CC12CC2 [Example 7]

>  <UNIT INFO>
nM

>  <OBSERVED RESULT>
8.8

$$$$

// query Entry C[C@](CO)(NC(=O)[C@H]1CCN(c2ncnc3[nH]ccc23)CC12CC2)c1ccc(C#N)cn1 [Example 78] has what EC50?
// result 39.4

// query Entry O=C(N[C@H](CO)C(=O)OCC1CCCC1)[C@H]1CCN(c2ncnc3[nH]ccc23)CC12CC2 [Example 87] has what EC50?
// result 43

// query Entry COc1ccc([C@H](C)NC(=O)C2CCN(c3ncnc4[nH]ccc34)CC23CC3)cc1 (some centres unmarked) [Example 66] has what EC50?
// result 40.7

====

Overview of recorded EC50 for various compounds
- SYSTEM NAME: UniProt P52333
- TEST SUMMARY: JAK kinase assay (HTRF), JAK3
- SETTINGS: catalytic domain, ATP at Km (2 μM)
# unit: nM | format: bare number

Examples with answers:
>  <COMPOUND>
C[C@H](NC(=O)[C@H]1CCN(c2ncnc3[nH]ccc23)CC12CC2)[C@@H](O)c1ccc(C#N)cc1

>  <UNIT INFO>
nM

>  <OBSERVED RESULT>
8.8

$$$$
>  <COMPOUND>
Cc1cc(C#N)ccc1[C@H](CO)NC(=O)[C@H]1CCN(c2ncnc3[nH]ccc23)CC12CC2

>  <UNIT INFO>
nM

>  <OBSERVED RESULT>
36.4

$$$$
>  <COMPOUND>
O=C(NC[C@H](O)c1ccccc1)C1CCN(c2ncnc3[nH]ccc23)CC12CC2 (some centres unmarked)

>  <UNIT INFO>
nM

>  <OBSERVED RESULT>
40.6

$$$$
>  <COMPOUND>
Cc1cc(F)ccc1[C@H](CO)NC(=O)[C@H]1CCN(c2ncnc3[nH]ccc23)CC12CC2

>  <UNIT INFO>
nM

>  <OBSERVED RESULT>
31.3

$$$$
>  <COMPOUND>
O=C(OCC1CC(F)(F)C1)[C@H]1CCN(c2ncnc3[nH]ccc23)CC12CC2

>  <UNIT INFO>
nM

>  <OBSERVED RESULT>
5.1

$$$$

// query Entry O=C(NCC1(O)CCCC1)C1CCN(c2ncnc3[nH]ccc23)CC12CC2 (centres unmarked) has what EC50?
// result 58.6

// query Entry O=C(NCC1CCCC1)C1CCN(c2ncnc3[nH]ccc23)CC12CC2 (centres unmarked) has what EC50?
// result 38.7

// query Entry C[C@H](NC(=O)[C@H]1CCN(c2ncnc3[nH]ccc23)CC12CC2)[C@@H](O)c1ccccc1 has what EC50?
// result 5.8

====

- SYSTEM NAME: TYK2 (Homo sapiens (Human))
- TEST SUMMARY: JAK kinase assay (HTRF), TYK2
- SETTINGS: catalytic domain, ATP at Km (13 μM)
OBSERVATION TYPE: EC50 (nM)
# unit: nM | format: bare number

>  <COMPOUND>
O=C(N[C@H](CO)c1ccccc1)C1CCN(c2ncnc3[nH]ccc23)CC12CC2 (stereo partly shown) [Example 127]

>  <UNIT INFO>
nM

>  <EC50>
1100

$$$$
>  <COMPOUND>
O=C(N[C@H](CO)C1CCCCC1)[C@H]1CCN(c2ncnc3[nH]ccc23)CC12CC2 [Example 132]

>  <UNIT INFO>
nM

>  <EC50>
665

$$$$
>  <COMPOUND>
C[C@](CO)(NC(=O)[C@H]1CCN(c2ncnc3[nH]ccc23)CC12CC2)c1ccc(C#N)cn1 [Example 78]

>  <UNIT INFO>
nM

>  <EC50>
231

$$$$

// query Entry O=C(N[C@@H](CO)C1CCC1)[C@H]1CCN(c2ncnc3[nH]ccc23)CC12CC2 [Example 148] has what EC50?
// result 1080

====

- SYSTEM NAME: TYK2 (Homo sapiens (Human), UniProt P29597)
- Sequence (P29597 871-1187): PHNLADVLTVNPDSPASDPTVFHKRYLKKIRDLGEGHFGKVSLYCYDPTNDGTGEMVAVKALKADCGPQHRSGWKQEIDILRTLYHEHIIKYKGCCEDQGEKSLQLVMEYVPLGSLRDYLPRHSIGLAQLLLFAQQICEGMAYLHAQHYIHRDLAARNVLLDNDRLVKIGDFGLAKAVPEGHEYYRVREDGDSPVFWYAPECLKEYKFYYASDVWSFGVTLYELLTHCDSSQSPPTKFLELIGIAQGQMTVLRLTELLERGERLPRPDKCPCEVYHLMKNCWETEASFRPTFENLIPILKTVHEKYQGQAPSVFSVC
- TEST SUMMARY: JAK kinase assay (HTRF), TYK2
- SETTINGS: catalytic domain, ATP at Km (13 μM)
OBSERVATION TYPE: EC50 (nM)
# unit: nM | format: bare number

Examples with answers:
>  <MOLECULE>
O=C(OCc1ccccc1)[C@H](CO)NC(=O)[C@H]1CCN(c2ncnc3[nH]ccc23)CC12CC2 [Example 138]

>  <OBSERVATION TYPE>
EC50

>  <OBSERVED RESULT>
1100

$$$$
>  <MOLECULE>
O=C(NCC1(O)CCCC1)[C@H]1CCN(c2ncnc3[nH]ccc23)CC12CC2 [Example 49]

>  <OBSERVATION TYPE>
EC50

>  <OBSERVED RESULT>
43.4

$$$$
>  <MOLECULE>
O=C(NC[C@H](O)C1CCCC1)[C@H]1CCN(c2ncnc3[nH]ccc23)CC12CC2 [Example 11]

>  <OBSERVATION TYPE>
EC50

>  <OBSERVED RESULT>
18.2

$$$$
>  <MOLECULE>
Cc1cc(F)ccc1[C@H](CO)NC(=O)[C@H]1CCN(c2ncnc3[nH]ccc23)CC12CC2 [Example 77]

>  <OBSERVATION TYPE>
EC50

>  <OBSERVED RESULT>
115

$$$$
>  <MOLECULE>
O=C(N[C@H](CO)C(=O)OCc1ccccc1)[C@H]1CCN(c2ncnc3[nH]ccc23)CC12CC2 [Example 80]

>  <OBSERVATION TYPE>
EC50

>  <OBSERVED RESULT>
119

$$$$

// query What measured EC50 is associated with C[C@@](CO)(NC(=O)[C@H]1CCN(c2ncnc3[nH]ccc23)CC12CC2)c1ccc(C#N)cc1 [Example 28] on TYK2 (Homo sapiens (Human), UniProt P29597)?
// result 55.8

// query What measured EC50 is associated with O=C(NC[C@H](O)C1CCCCC1)[C@H]1CCN(c2ncnc3[nH]ccc23)CC12CC2 [Example 15] on TYK2 (Homo sapiens (Human), UniProt P29597)?
// result 7.4

// query What measured EC50 is associated with Cc1cc([C@H](CO)NC(=O)[C@H]2CCN(c3ncnc4[nH]ccc34)CC23CC3)ccc1C#N [Example 54] on TYK2 (Homo sapiens (Human), UniProt P29597)?
// result 135

====

Overview of recorded log10(EC50) for various compounds
- SYSTEM NAME: JAK1 (Homo sapiens (Human))
- Sequence (P23458 850-1154): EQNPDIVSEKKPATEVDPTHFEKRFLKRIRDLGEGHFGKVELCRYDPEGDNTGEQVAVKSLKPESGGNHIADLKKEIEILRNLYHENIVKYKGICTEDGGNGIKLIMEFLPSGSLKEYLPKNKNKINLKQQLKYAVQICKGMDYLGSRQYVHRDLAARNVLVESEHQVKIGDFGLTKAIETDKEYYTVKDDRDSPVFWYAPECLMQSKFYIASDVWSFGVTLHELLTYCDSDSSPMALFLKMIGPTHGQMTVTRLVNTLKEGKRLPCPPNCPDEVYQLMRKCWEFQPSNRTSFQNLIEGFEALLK
- TEST SUMMARY: JAK kinase assay (HTRF), JAK1
- SETTINGS: catalytic domain, ATP at Km (7 μM)
Hey, these are logged values: log10 of EC50, nM being the unit before logging.

>  <COMPOUND>
O=C(NCc1cccc(F)c1)C1CCN(c2ncnc3[nH]ccc23)CC12CC2 (stereo not shown)

>  <OBSERVED RESULT>
0.83

$$$$
>  <COMPOUND>
N#Cc1ccc([C@H](O)CNC(=O)[C@H]2CCN(c3ncnc4[nH]ccc34)CC23CC3)cc1

>  <OBSERVED RESULT>
-0.22

$$$$
>  <COMPOUND>
O=C(N[C@H](CO)C(=O)OCC1CCCC1)[C@H]1CCN(c2ncnc3[nH]ccc23)CC12CC2

>  <OBSERVED RESULT>
0.86

$$$$
>  <COMPOUND>
C[C@H](NC(=O)[C@H]1CCN(c2ncnc3[nH]ccc23)CC12CC2)[C@H](O)c1ccc(F)cn1

>  <OBSERVED RESULT>
1.01

$$$$
>  <COMPOUND>
COc1ccc([C@H](C)NC(=O)C2CCN(c3ncnc4[nH]ccc34)CC23CC3)cc1 (stereo partly shown)

>  <OBSERVED RESULT>
0.68

$$$$
>  <COMPOUND>
O=C(N[C@@H](CO)c1ccc(F)cc1F)[C@H]1CCN(c2ncnc3[nH]ccc23)CC12CC2

>  <OBSERVED RESULT>
0.28

$$$$

// query What measured log10(EC50) is associated with C[C@@H](NC(=O)C1CCN(c2ncnc3[nH]ccc23)CC12CC2)c1ccc(C#N)cc1 (stereo partly shown) on JAK1 (Homo sapiens (Human))?
// result 1.05

// query What measured log10(EC50) is associated with C[C@H](NC(=O)[C@H]1CCN(c2ncnc3[nH]ccc23)CC12CC2)c1ccc(C#N)c(F)c1 on JAK1 (Homo sapiens (Human))?
// result -0.05
